- assayed-system: T1, Human CXCR2 (human, UniProt P25025 1-360)
- T1 sequence: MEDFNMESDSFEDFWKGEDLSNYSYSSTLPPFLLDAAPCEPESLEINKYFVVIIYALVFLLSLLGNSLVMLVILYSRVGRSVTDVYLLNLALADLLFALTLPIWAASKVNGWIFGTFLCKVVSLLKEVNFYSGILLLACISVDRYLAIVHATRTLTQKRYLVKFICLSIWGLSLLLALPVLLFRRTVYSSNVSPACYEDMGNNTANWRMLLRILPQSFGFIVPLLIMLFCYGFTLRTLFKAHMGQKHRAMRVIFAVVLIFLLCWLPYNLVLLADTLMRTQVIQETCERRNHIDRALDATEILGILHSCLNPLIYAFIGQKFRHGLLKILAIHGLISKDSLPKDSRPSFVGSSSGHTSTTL
- test-name: cell-based or functional assay
measurement-label: [35S]GTPγS IC50 (GRO-α) (nM)
State just the number; it will be interpreted in nM.

Which [35S]GTPγS IC50 (GRO-α) reading was recorded for the binder CXCR20014 (bispecific antibody, Biparatopic: two VHH joined by a GlySer linker; also called 97A9-35GS-2B2; 97A9-2B2; not shown: C-terminal c-myc tag and His6 tag coded by pAX100) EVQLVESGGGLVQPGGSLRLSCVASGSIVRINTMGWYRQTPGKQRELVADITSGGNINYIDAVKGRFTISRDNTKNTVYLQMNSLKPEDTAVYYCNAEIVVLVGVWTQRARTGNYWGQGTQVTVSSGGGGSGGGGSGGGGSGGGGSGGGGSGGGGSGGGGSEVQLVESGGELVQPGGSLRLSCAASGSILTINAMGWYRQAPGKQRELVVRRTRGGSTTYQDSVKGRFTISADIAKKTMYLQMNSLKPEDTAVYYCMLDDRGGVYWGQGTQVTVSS ?
1.38

Which [35S]GTPγS IC50 (GRO-α) reading was recorded for the binder CXCR20021 (bispecific antibody, Biparatopic: two VHH joined by a GlySer linker; also called 127D1-35GS-163E3; 127D1-163E3; not shown: C-terminal c-myc tag and His6 tag coded by pAX100) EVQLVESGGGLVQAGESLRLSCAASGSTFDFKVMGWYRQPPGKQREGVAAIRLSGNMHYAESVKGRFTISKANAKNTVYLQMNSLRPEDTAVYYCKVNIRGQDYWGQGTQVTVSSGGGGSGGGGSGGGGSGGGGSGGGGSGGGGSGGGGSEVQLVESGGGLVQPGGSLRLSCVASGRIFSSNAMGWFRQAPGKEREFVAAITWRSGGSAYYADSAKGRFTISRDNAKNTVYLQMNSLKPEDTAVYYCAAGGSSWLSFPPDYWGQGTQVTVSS ?
0.551

Which [35S]GTPγS IC50 (GRO-α) reading was recorded for the binder CXCR20030 (other, Biparatopic: two VHH joined by a GlySer linker; also called 163D2-35GS-54B12; 163D2-54B12; not shown: C-terminal c-myc tag and His6 tag coded by pAX100) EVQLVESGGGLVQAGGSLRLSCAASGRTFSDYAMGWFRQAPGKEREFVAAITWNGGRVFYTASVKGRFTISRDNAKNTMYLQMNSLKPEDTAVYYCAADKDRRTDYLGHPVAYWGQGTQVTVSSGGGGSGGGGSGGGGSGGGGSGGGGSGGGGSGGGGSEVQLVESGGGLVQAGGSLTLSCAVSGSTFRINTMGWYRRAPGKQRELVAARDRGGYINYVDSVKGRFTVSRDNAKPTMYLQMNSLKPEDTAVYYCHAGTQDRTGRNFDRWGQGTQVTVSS ?
1.02

Which [35S]GTPγS IC50 (GRO-α) reading was recorded for the binder CXCR20035 (other, Biparatopic: two VHH joined by a GlySer linker; also called 54B12-35GS-163E3; 54B12-163E3; not shown: C-terminal c-myc tag and His6 tag coded by pAX100) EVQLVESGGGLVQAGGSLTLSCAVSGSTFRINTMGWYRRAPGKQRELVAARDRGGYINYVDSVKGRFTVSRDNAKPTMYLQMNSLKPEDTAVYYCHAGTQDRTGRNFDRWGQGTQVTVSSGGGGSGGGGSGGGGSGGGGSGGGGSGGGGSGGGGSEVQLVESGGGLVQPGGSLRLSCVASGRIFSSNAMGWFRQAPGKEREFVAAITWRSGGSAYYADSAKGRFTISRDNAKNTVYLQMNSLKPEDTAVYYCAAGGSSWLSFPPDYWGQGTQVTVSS ?
0.844

Which [35S]GTPγS IC50 (GRO-α) reading was recorded for the binder CXCR20026 (bispecific antibody, Biparatopic: two VHH joined by a GlySer linker; also called 163E3-35GS-127D1; 163E3-127D1; not shown: C-terminal c-myc tag and His6 tag coded by pAX100) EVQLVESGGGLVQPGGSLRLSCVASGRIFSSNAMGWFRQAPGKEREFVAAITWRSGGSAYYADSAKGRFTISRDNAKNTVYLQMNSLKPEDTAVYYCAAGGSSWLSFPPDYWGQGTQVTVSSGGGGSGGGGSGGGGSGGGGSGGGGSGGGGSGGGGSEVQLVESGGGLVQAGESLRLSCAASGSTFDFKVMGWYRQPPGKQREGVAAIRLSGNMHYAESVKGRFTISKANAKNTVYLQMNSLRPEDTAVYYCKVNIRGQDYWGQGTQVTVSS ?
0.809

Which [35S]GTPγS IC50 (GRO-α) reading was recorded for the binder CXCR20025 (bispecific antibody, Biparatopic: two VHH joined by a GlySer linker; also called 163D2-35GS-127D1; not shown: C-terminal c-myc tag and His6 tag coded by pAX100) EVQLVESGGGLVQAGGSLRLSCAASGRTFSDYAMGWFRQAPGKEREFVAAITWNGGRVFYTASVKGRFTISRDNAKNTMYLQMNSLKPEDTAVYYCAADKDRRTDYLGHPVAYWGQGTQVTVSSGGGGSGGGGSGGGGSGGGGSGGGGSGGGGSGGGGSEVQLVESGGGLVQAGESLRLSCAASGSTFDFKVMGWYRQPPGKQREGVAAIRLSGNMHYAESVKGRFTISKANAKNTVYLQMNSLRPEDTAVYYCKVNIRGQDYWGQGTQVTVSS ?
0.891
